System: bedstraw
Experiment: Test B pre/postemergence bedstraw
Format: in vivo, Galium aparine
Details: Rate 500 g/ha, Postemergence; scale 0 to 10, 0 no effect, 10 complete control
MEASUREMENT LABEL: Bedstraw plant response rating
Give bare numbers.

MOLECULE | Bedstraw plant response rating
COC(=O)CCCn1c(=O)on(C(=O)N(c2ccc(F)cc2)C(C)C)c1=O | 6

Give me Bedstraw plant response rating for each of these molecules, listed below.
1. CC(C)N(C(=O)n1oc(=O)n(CC(C)(C)C)c1=O)c1ccc(F)cc1
2. CC(C)N(C(=O)n1oc(=O)n(Cc2cccs2)c1=O)c1ccc(F)cc1F

1. 9
2. 8

Each molecule below has a reported value. Please supply its Bedstraw plant response rating.
1. CC(C)N(C(=O)n1oc(=O)n(-c2cccnc2)c1=O)c1ccc(F)cc1
2. CC(C)N(C(=O)n1oc(=O)n([C@H](C)c2ccccc2)c1=O)c1ccc(F)cc1F
3. Cc1cccc(C)c1-n1c(=O)on(C(=O)N(C(C)C)C2C=CCCC2)c1=O (centres unmarked)
4. CCOC(=O)C(C)N(C(=O)n1oc(=O)n(CC)c1=O)c1ccc(F)cc1 (centres unmarked)
5. CCN(CC)C(=O)n1oc(=O)n(Cc2ccccc2)c1=O

[0, 8, 0, 0, 0]

====

System: crabgrass
Test: Test B pre/postemergence crabgrass
Assay type: in vivo, Digitaria sanguinalis
Conditions: Preemergence, Rate 125 g/ha; scale of 0 to 10 where 0 is no effect and 10 is complete control
MEASUREMENT LABEL: Crabgrass plant response rating
Numbers only.

// solved cases for Crabgrass plant response rating follow
COMPOUND | Crabgrass plant response rating
COC(C)n1c(=O)on(C(=O)N(c2ccc(Cl)cc2)C(C)C)c1=O (centres unmarked) | 0
CCC(C)n1c(=O)on(C(=O)N(c2ccccc2)C(C)C)c1=O (centres unmarked) | 10
C#CC(C=C(C)C)n1c(=O)on(C(=O)N(c2ccccc2)C(C)C)c1=O (centres unmarked) | 8

For every listed record, write down its Crabgrass plant response rating.
1. COC(=O)C(C)n1c(=O)on(C(=O)N(c2ccc(Cl)cc2)C(C)C)c1=O (centres unmarked)
2. CC(C)N(C(=O)n1oc(=O)n(CCC(F)(F)F)c1=O)c1ccccc1

0
8

====

Tested on: soybean
Assay: Test B pre/postemergence soybean
Format: in vivo, Glycine max
Details: Preemergence, Rate 500 g/ha; scale 0 to 10, 0 is no effect, 10 is complete control
MEASUREMENT LABEL: Soybean plant response rating

Go through the list and state Soybean plant response rating for each entry.
1. CC(C)N(C(=O)n1oc(=O)n(C[Si](C)(C)c2ccccc2)c1=O)c1ccc(Cl)cc1
2. CC(C)N(C(=O)n1oc(=O)n(CC(=O)N(C)C)c1=O)c1ccc(F)cc1F
3. CC(C)N(C(=O)n1oc(=O)n(C(C)C#N)c1=O)c1ccc(F)cc1F (stereo not shown)

1: 0; 2: 0; 3: 0

Query (molecule): `CCOC(=O)C=C(Cn1c(=O)on(C(=O)N(c2ccc(F)cc2)C(C)C)c1=O)OCC` ; field requested: Soybean plant response rating
0

====

System: pigweed
Assay: Test B pre/postemergence pigweed
Format: in vivo, Amaranthus retroflexus
Conditions: Rate 62 g/ha, Postemergence; scale 0 to 10 (0 no effect, 10 complete control)
MEASUREMENT LABEL: Redroot pigweed plant response rating
Answers are plain numbers.

COMPOUND | NUMBER
CC(C)N(C(=O)n1oc(=O)n(C2CCCC2)c1=O)c1ccccc1 [Compound 283] | 4
CC(C)N(C(=O)n1oc(=O)n(C(C)C(=O)N(C)C)c1=O)c1ccc(F)cc1F (stereo not shown) [Compound 481] | 0

Report Redroot pigweed plant response rating for each item below.
1. CCOCn1c(=O)on(C(=O)N(c2ccc(F)cc2)C(C)C)c1=O [Compound 295]
2. CCCCCn1c(=O)on(C(=O)N(c2ccc(F)cc2)C(C)C)c1=O [Compound 290]

1. 0
2. 0

====

System: pigweed
Experiment: Test B pre/postemergence pigweed
Format: in vivo, Amaranthus retroflexus
Conditions: Preemergence, Rate 250 g/ha; scale of 0 to 10 where 0 is no effect and 10 is complete control
Assign Redroot pigweed plant response rating to each entry below.
Numbers only.

COMPOUND | Redroot pigweed plant response rating
CCN(CC)C(=O)n1oc(=O)n(-c2ccccc2C)c1=O | 0
CC(C)N(C(=O)n1oc(=O)n(C2CCCCCC2)c1=O)c1ccc(F)cc1F | 0

Next, consider the following compound.
Consider the compound shown here: Cc1cccc(C)c1-n1c(=O)on(C(=O)N(C(C)C)C2C=CCCC2)c1=O (stereo not drawn) What is its recorded Redroot pigweed plant response rating?
0

====

System: pigweed
Experiment: Test B pre/postemergence pigweed
Type: in vivo, Amaranthus retroflexus
Conditions: Preemergence, Rate 125 g/ha; scale of 0 to 10 where 0 is no effect and 10 is complete control
Kindly state Redroot pigweed plant response rating for each of the entries shown.
One number for each entry.

Could you tell me Redroot pigweed plant response rating for each of these compounds? They are listed below.
1. COCCn1c(=O)on(C(=O)N(c2ccccc2)C(C)C)c1=O [Compound 631]
2. CC(C)N(C(=O)n1oc(=O)n(CC(=O)C(F)(F)F)c1=O)c1ccc(F)cc1F [Compound 598]
3. COC(=O)C(C)n1c(=O)on(C(=O)N(c2ccc(Cl)cc2)C(C)C)c1=O (centres unmarked) [Compound 623]
4. CCC(C)n1c(=O)on(C(=O)N(c2ccccc2)C(C)C)c1=O (centres unmarked) [Compound 612]

9
0
0
10

// Redroot pigweed plant response rating lookup, key: C#CC(C=C(C)C)n1c(=O)on(C(=O)N(c2ccccc2)C(C)C)c1=O (centres unmarked) [Compound 652]
0

====

System: wild oat
Experiment: Test B pre/postemergence wild oat
Format: in vivo, Avena fatua
Settings: Preemergence, Rate 500 g/ha; scale of 0 to 10 where 0 is no effect and 10 is complete control
MEASUREMENT LABEL: Plant response rating, Wild oats
One number for each entry.

COMPOUND | Plant response rating, Wild oats
CCOC(=O)C=CCn1c(=O)on(C(=O)N(c2ccc(F)cc2)C(C)C)c1=O | 0

Hey, can you go through the list below and give me Plant response rating, Wild oats for every item?
1. CC(C)N(C(=O)n1oc(=O)n(CC(=O)C2CC2)c1=O)c1ccc(Cl)cc1
2. CC(C)N(C(=O)n1oc(=O)n(CC(Cl)Cl)c1=O)c1ccc(F)cc1F
3. CCOP(=O)(OCC)C(C)n1c(=O)on(C(=O)N(c2ccc(F)cc2)C(C)C)c1=O (centres unmarked)
4. C=CCn1c(=O)on(C(=O)N(c2ccc(F)cc2)C2CCCCCC2)c1=O
5. CC(C)N(C(=O)n1oc(=O)n(C[Si](C)(C)C)c1=O)c1ccc(F)cc1
6. Cc1cccc(C)c1-n1c(=O)on(C(=O)N(C(C)C)C2C=CCCC2)c1=O (centres unmarked)
7. CC(C)N(C(=O)n1oc(=O)n(-c2cccnc2)c1=O)c1ccccc1

1: 3; 2: 8; 3: 3; 4: 0; 5: 8; 6: 3; 7: 0

====

System: wheat
Assay: Test B pre/postemergence wheat
Assay type: in vivo, Triticum aestivum
Settings: Preemergence, Rate 500 g/ha; scale of 0 to 10 where 0 is no effect and 10 is complete control
MEASUREMENT LABEL: Wheat plant response rating

In the examples that follow, each entry is paired with its recorded Wheat plant response rating.
COMPOUND | Wheat plant response rating
Cc1ccccc1-n1c(=O)on(C(=O)N(c2ccc(Cl)cc2)C(C)C2CC2)c1=O (stereo not shown) [Compound 330] | 0
CC(C)N(C(=O)n1oc(=O)n(Cc2nnsc2Cl)c1=O)c1ccccc1 [Compound 321] | 0
CC(Cl)=CCn1c(=O)on(C(=O)N(c2ccc(F)cc2F)C(C)C)c1=O [Compound 514] | 4

Pending compound:
Given the entry CCOc1nc(C(F)(F)F)c(Cn2c(=O)on(C(=O)N(c3ccc(F)cc3)C(C)C)c2=O)s1 [Compound 381] , report its measured Wheat plant response rating.
0

====

Test system: giant foxtail
Experiment: Test B pre/postemergence giant foxtail
Format: in vivo, Setaria faberii
Conditions: Rate 125 g/ha; Preemergence; scale of 0 to 10 where 0 is no effect and 10 is complete control
Answer each item with its documented Giant foxtail plant response rating.
Numbers only.

Recorded results for 4 compounds are shown here.
COMPOUND | MEASUREMENT TARGET | Giant foxtail plant response rating
CCCCc1ccc(N(C(=O)n2oc(=O)n(-c3ccccc3C)c2=O)C(C)C)cc1 | giant foxtail | 0
CCCCCn1c(=O)on(C(=O)N(c2ccc(F)cc2)C(C)C)c1=O | giant foxtail | 9
CC(C)N(C(=O)n1oc(=O)n(-c2cccnc2)c1=O)c1ccccc1 | giant foxtail | 0
CC(C)N(C(=O)n1oc(=O)n(C[Si](C)(C)C)c1=O)c1ccc(F)cc1 | giant foxtail | 9

# evaluate next
Entry `CC(=O)OCCCCn1c(=O)on(C(=O)N(c2ccc(F)cc2)C(C)C)c1=O` : reported Giant foxtail plant response rating = ?
4
